Target: T1, PSCA (prostate stem cell antigen), human (human, UniProt O43653 12-83)
T1 construct: Tested on cells: SW780, LAPC9AI, PC3-PSCA, B300.19-PSCA, prostate cancer xenograft cells and tumour tissue; also called PSCA v.1; PSCA variant 1
Assay: FACS titration on SW780 cells, anti-hIgG-PE, Prism sigmoidal dose-response fit
PARAMETER_MEASURED: pKd
// scale note: pKd = -log10(conc_M); give the bare number

Consider the following illustrative entries.
Input line: Quick check: pKd of Ha1-1.16 (antibody, IgG1, V domains shown, Fully human MAb from human gamma 1 producing XenoMouse immunized with PSCA-GST (IgG1, kappa), hybridoma ATCC PTA-6698; Ha1-1.16.1 (subclone label) is treated as the same antibody; also called Ha1-1.16.1) VH: QVQLQQSGPGLVKPSQTLSLTCAISGDSVSSNSAAWNWIRQSPSRGLEWLGRTYYRSKWYNGYAVSVKSRMTINPDTSKNQFSLQLNSVTPEDTAVYYCARERLGELYGMDVWGQGTTVTVSS VL: QLTQSPDSLAVSLGERATINCKSSQNILYRSSKKNHLVWYQQKPGQPPKLLIYWASTRESGVPARFSGSGSGTDFTLTISTLQAEDVAVYYCQQYYSTPPTFGQGTRLEIKR ?
Output line: 8.16

Input line: Dear colleague, I am looking for the recorded pKd of the following binder: Ha1-5.99 (antibody, IgG2, V domains shown, Fully human MAb from human gamma 2 producing XenoMouse (IgG2, kappa), hybridoma ATCC PTA-6703; Ha1-5.99.1 (subclone label) is treated as the same antibody; also called HA1-5.99.1; Ha1-5.99.1) VH: QVHLQQWGAGLLKPSETLSLTCAVYGGSFSGYYWSWIRQPPGKGLEWIGEINHSGSTSYKPSLKSRVTVSVDTSKNQFSLKLSYVTAADTAVYYCARDRGDYGDFLFDYWGQGTLVTVSS VL: SPGERATLSCRASQSIGSTYLAWYQQKPGQAPRLLIYGASSRATGIPERFSGSGSGTDFTLTISGLEPEDFAVFYCQQCGSSPPTFGQGTKVEIKR
Output line: 9.55

Input line: Which pKd value belongs to Ha1-4.117 (antibody, V domains shown, Fully human MAb from human gamma 1 producing XenoMouse (IgG1, kappa), hybridoma ATCC PTA-6699; A fluorescein conjugate was used for IHC) VH: QVQLQESGPGLVKPSQTLSLTCTVSGGSISSGGYYWIWIRQHPGKGLEWIGYIYYNGNTYYNPSLKSRVTMSVDTSKNQFSLKLSSVTAADTAVYYCARDGITMIRGYYYGMDVWGQGTTVTVSS VL: QLTQSPSSVSASVGDRVTITCRASRGISSWLAWYQQKPGKAPKLLIYTASSLQSGVPSRFSGSGSGTDFTLTISSLQPEDFATYYCQQAYSFPRTFGQGTKVEIKR ?
Output line: 9.49

New cases:
Input line: Any idea what pKd was measured for Ha1-4.37 (antibody, IgG1, V domains shown, Fully human MAb from human gamma 1 producing XenoMouse (IgG1, kappa), hybridoma ATCC PTA-6702) VH: PGALQESGPGLVRPSQTLSLTCTVSGGSISSGGTYYWIWIRQHPGKGLEWIGYIYYSGSTYYNPSLKSRVTISVDTSKNQFSLKLSSVTAADTAVYYCARDGITMVRGISGGMDVWGQGTTVTVSS VL: ASVGDRVTITCRASQSISSHLNWYQQKPGKAPKLLIYAASSLQSGVPSRFSGSGSGTDFTLSISSLQPEDFATYFCQQSYSIPRTFGQGTKVEITR ?
Output line: 9.64
